The reported measurements were obtained from the supplement of paper PMC12494721.

- System: Escherichia coli IAI1
- Assay details: growth (OD595) fold change vs plate DMSO controls (fold change (ratio)); higher = more growth
- Measurement parameters: incubation time: 27 h, anaerobic, 37 °C
Structures can show the parent of a compound that is named as a salt.
Here the recorded growth is given for each entry.
I only need the number, thanks.

Solved entries:
Query :: Quick one: growth for Clc1ccc2c(c1)C(N1CCNCC1)=Nc1ccccc1O2 [Amoxapine] (20 µM) ?
Result :: 1.03

Query :: Quick one: growth for S=c1[nH]cnc2nc[nH]c12 [Mercaptopurine] (20 µM) ?
Result :: 1.1

Query :: Quick one: growth for Cc1onc(-c2c(F)cccc2Cl)c1C(=O)N[C@@H]1C(=O)N2[C@@H]1SC(C)(C)[C@@H]2C(=O)O [Flucloxacillin sodium] (20 µM) ?
Result :: 1.02

New cases:
Query :: Quick one: growth for CCCCCNC(=N)N/N=C/c1c[nH]c2ccc(OC)cc12 [Tegaserod maleate] (20 µM) ?
Result :: 1.01

Query :: Quick one: growth for CC(=O)O[C@]1(C(C)=O)CC[C@H]2[C@@H]3C=C(C)C4=CC(=O)CC[C@@H]4[C@H]3CC[C@@]21C [Nomegestrol acetate] (20 µM) ?
Result :: 1.05

Query :: Quick one: growth for CCCCCCNC(=O)n1cc(F)c(=O)[nH]c1=O [Carmofur] (20 µM) ?
Result :: 0.886

Query :: Quick one: growth for CN(C)c1cc(NC(=O)CNC(C)(C)C)c(O)c2c1C[C@H]1C[C@H]3[C@H](N(C)C)C(=O)C(C(N)=O)=C(O)[C@@]3(O)C(=O)C1=C2O [Tigecycline] (20 µM) ?
Result :: 1.12

Query :: Quick one: growth for OC[C@@H](O)[C@@H](O)[C@H](O)[C@@H](O)CO [Sorbitol] (50 µM) ?
Result :: 0.929

Query :: Quick one: growth for COc1ccc(C(=O)NCc2cccnc2)cc1C(=O)NCc1cccnc1 [Picotamide monohydrate] (20 µM) ?
Result :: 0.972

Query :: Quick one: growth for OC[C@@H](O)[C@H](O)[C@@H](O)CO [Xylitol] (50 µM) ?
Result :: 1.05

----------
- System: Clostridium sporogenes DSM 1664
- Assay details: fold change of Tryptamine concentration vs plate DMSO controls (fold change (ratio)); higher = more amine produced, active = hit call of the paper (significant change in both replicates, either direction)
- Measurement parameters: incubation time: 27 h, anaerobic, 37 °C
Counter-ions that a name gives are not always drawn.
Assign class by fold change of Tryptamine concentration: not lower than 1 means TRUE; lower than 1 means FALSE.

Query :: Answer whether fold change of Tryptamine concentration of Cc1cccc(C)c1OCC(=O)N[C@@H](Cc1ccccc1)[C@@H](O)C[C@H](Cc1ccccc1)NC(=O)[C@H](C(C)C)N1CCCNC1=O [Lopinavir] (20 µM) is greater than or equal to 1.
Result :: FALSE

Query :: Answer whether fold change of Tryptamine concentration of NS(=O)(=O)c1cc2c(cc1Cl)NC(C(Cl)Cl)NS2(=O)=O (configuration not stated) [Trichlormethiazide] (20 µM) is greater than or equal to 1.
Result :: TRUE

Query :: Answer whether fold change of Tryptamine concentration of CN(C)CCCN1c2ccccc2[S+]([O-])c2ccc(Cl)cc21 (configuration not stated) [Chlorpromazine Sulfoxide] (20 µM) is greater than or equal to 1.
Result :: TRUE

New cases:
Query :: Answer whether fold change of Tryptamine concentration of Cc1[nH]cnc1CN1CCc2c(c3ccccc3n2C)C1=O [Alosetron hydrochloride] (20 µM) is greater than or equal to 1.
Result :: TRUE

Query :: Answer whether fold change of Tryptamine concentration of CCCCc1ncc(/C=C(\Cc2cccs2)C(=O)O)n1Cc1ccc(C(=O)O)cc1 [Eprosartan mesylate] (20 µM) is greater than or equal to 1.
Result :: TRUE

----------
- Test system: Clostridium sporogenes DSM 1664
- Assay details: fold change of Tryptamine concentration vs plate DMSO controls (fold change (ratio)); higher = more amine produced, active = hit call of the paper (significant change in both replicates, either direction)
- Measurement parameters: incubation time: 27 h, anaerobic, 37 °C
Counter-ions that a name gives are not always drawn.
Here the recorded fold change of Tryptamine concentration is given for each entry.
I only need the number, thanks.

Solved entries:
Query :: Value wanted: fold change of Tryptamine concentration (Clostridium sporogenes DSM 1664) of entry CC(Oc1c(Cl)cccc1Cl)C1=NCCN1 (stereo unspecified) [Lofexidine] (20 µM)
Result :: 0.975

Query :: Value wanted: fold change of Tryptamine concentration (Clostridium sporogenes DSM 1664) of entry COc1ccc2cc([C@H](C)C(=O)O)ccc2c1 [(S)-Naproxen] (20 µM)
Result :: 0.983

Query :: Value wanted: fold change of Tryptamine concentration (Clostridium sporogenes DSM 1664) of entry CC1CC(OC(=O)C(O)c2ccccc2)CC(C)(C)C1 (stereo unspecified) [Cyclandelate] (20 µM)
Result :: 1.04

Query :: Value wanted: fold change of Tryptamine concentration (Clostridium sporogenes DSM 1664) of entry O=C1c2ccccc2S(=O)(=O)N1CCCCN1CCN(c2ncccn2)CC1 [Ipsapirone] (20 µM)
Result :: 1.04

Query :: Value wanted: fold change of Tryptamine concentration (Clostridium sporogenes DSM 1664) of entry O=C1c2cccc(O)c2C(=O)c2c(O)cccc21 [Danthron] (20 µM)
Result :: 1.02

New cases:
Query :: Value wanted: fold change of Tryptamine concentration (Clostridium sporogenes DSM 1664) of entry Nc1nc2ccc(OC(F)(F)F)cc2s1 [Riluzole hydrochloride] (20 µM)
Result :: 0.945

Query :: Value wanted: fold change of Tryptamine concentration (Clostridium sporogenes DSM 1664) of entry CCC(=O)OCC(=O)[C@@]1(OC(=O)CC)[C@@H](C)C[C@H]2[C@@H]3CCC4=CC(=O)C=C[C@]4(C)[C@@]3(Cl)[C@@H](O)C[C@@]21C [Beclomethasone dipropionate] (20 µM)
Result :: 1.01

Query :: Value wanted: fold change of Tryptamine concentration (Clostridium sporogenes DSM 1664) of entry CC[C@@H](CO)NCCN[C@@H](CC)CO [Ethambutol dihydrochloride] (20 µM)
Result :: 0.996

Query :: Value wanted: fold change of Tryptamine concentration (Clostridium sporogenes DSM 1664) of entry COCCCC/C(=N\OCCN)c1ccc(C(F)(F)F)cc1 [Fluvoxamine maleate] (20 µM)
Result :: 1.03

Query :: Value wanted: fold change of Tryptamine concentration (Clostridium sporogenes DSM 1664) of entry CC(=O)SCC(Cc1ccccc1)C(=O)NCC(=O)OCc1ccccc1 (stereo unspecified) [Racecadotril] (20 µM)
Result :: 0.941

Query :: Value wanted: fold change of Tryptamine concentration (Clostridium sporogenes DSM 1664) of entry CCN(CC)CCNC(C(=O)OCCC(C)C)c1ccccc1 (stereo unspecified) [Camylofine chlorhydrate] (20 µM)
Result :: 0.953

Query :: Value wanted: fold change of Tryptamine concentration (Clostridium sporogenes DSM 1664) of entry CC=CC(=O)N(CC)c1ccccc1C [Crotamiton] (20 µM)
Result :: 1.01

----------
- Test system: Clostridium sporogenes DSM 1664
- Assay details: fold change of Tryptamine concentration vs plate DMSO controls (fold change (ratio)); higher = more amine produced, active = hit call of the paper (significant change in both replicates, either direction);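 for the amine columns active = adjusted P below 0.05 in both replicates with a change the same way and a mean fold change under 0.8 or over 1.25; inactive = the rest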
- Measurement parameters: incubation time: 27 h, anaerobic, 37 °C
Counter-ions that a name gives are not always drawn.
Result category, one only: label 1 (active), label 0 (inactive)

Query :: // param item: Nc1ccn([C@H]2CC[C@@H](CO)O2)c(=O)n1 [Zalcitabine] (20 µM) ; yields the recorded call
Result :: label 0

Query :: // param item: COc1ccc2c(c1)N(C[C@H](C)CN(C)C)c1ccccc1S2 [Methotrimeprazine maleate salt] (20 µM) ; yields the recorded call
Result :: label 0

Query :: // param item: COc1nc(C)nc(Cl)c1NC1=NCCN1 [Moxonidine] (20 µM) ; yields the recorded call
Result :: label 0

Query :: // param item: CCCC(CCC)C(=O)O[C@H]1C[C@H]2CC[C@@H](C1)[N+]2(C)C [Anisotropine Methylbromide] (20 µM) ; yields the recorded call
Result :: label 0

Query :: // param item: CCOC(=O)O[C@]1(C(=O)OCCl)CC[C@H]2[C@@H]3CCC4=CC(=O)C=C[C@]4(C)[C@H]3[C@@H](O)C[C@@]21C [Loteprednol etabonate] (20 µM) ; yields the recorded call
Result :: label 0

Query :: // param item: CC(N)(Cc1ccc(O)c(O)c1)C(=O)O (stereo unspecified) [(L) Methyldopa] (20 µM) ; yields the recorded call
Result :: label 0

Query :: // param item: O=C(NCC1CCCCN1)c1cc(OCC(F)(F)F)ccc1OCC(F)(F)F (stereo unspecified) [Flecainide acetate] (20 µM) ; yields the recorded call
Result :: label 0

Query :: // param item: CCOC(=O)[C@@](C)(N)Cc1ccc(O)c(O)c1 [Methyldopate hydrochloride] (20 µM) ; yields the recorded call
Result :: label 0

New cases:
Query :: // param item: CC1CS(=O)(=O)CCN1/N=C/c1ccc([N+](=O)[O-])o1 (stereo unspecified) [Nifurtimox] (20 µM) ; yields the recorded call
Result :: label 0

Query :: // param item: CCC(=O)c1ccc(O)cc1 [Paroxypropione] (20 µM) ; yields the recorded call
Result :: label 0

Query :: // param item: CC(C)NCC(O)COc1cccc2[nH]ccc12 (stereo unspecified) [Pindolol] (20 µM) ; yields the recorded call
Result :: label 0

Query :: // param item: Cc1ccc(N(CC2=NCCN2)c2cccc(O)c2)cc1 [Phentolamine hydrochloride] (20 µM) ; yields the recorded call
Result :: label 0

Query :: // param item: CC(C)(C)NC[C@H](O)COc1cccc2c1CCCC2=O [(-) Levobunolol hydrochloride] (20 µM) ; yields the recorded call
Result :: label 0

Query :: // param item: CC(C)c1cc2c(cc1S(=O)(=O)O)[C@@]1(C)CCC[C@@](C)(C(=O)O)[C@@H]1CC2 [Ecabet sodium] (20 µM) ; yields the recorded call
Result :: label 0

Query :: // param item: CC(C)NCC(O)c1ccc2ccccc2c1 (stereo unspecified) [Pronethalol hydrochloride] (20 µM) ; yields the recorded call
Result :: label 0

Query :: // param item: CCOC(=O)/C=C(C)/C=C/C=C(C)/C=C/c1c(C)cc(OC)c(C)c1C [Etretinate] (20 µM) ; yields the recorded call
Result :: label 0

Query :: // param item: CC(=O)OCC(=O)[C@@]1(O)CC[C@H]2[C@@H]3CCC4=CC(=O)C=C[C@]4(C)[C@@]3(Cl)[C@@H](Cl)C[C@@]21C [Dichlorisone acetate] (20 µM) ; yields the recorded call
Result :: label 0

Query :: // param item: Cc1cccc(C)c1NC(=O)CC12CCCN1CCC2 [Pilsicainide Hydrochloride] (20 µM) ; yields the recorded call
Result :: label 0

Query :: // param item: N#CC(c1ccc(Cl)cc1)c1c(Cl)cc(-n2ncc(=O)[nH]c2=O)cc1Cl (stereo unspecified) [Diclazuril] (20 µM) ; yields the recorded call
Result :: label 0

Query :: // param item: O=C(NC(Cc1cc(=O)[nH]c2ccccc12)C(=O)O)c1ccc(Cl)cc1 (stereo unspecified) [Rebamipide] (20 µM) ; yields the recorded call
Result :: label 0

Query :: // param item: O=C(OCC(O)CO)c1ccccc1Nc1ccnc2cc(Cl)ccc12 (stereo unspecified) [Glafenine hydrochloride] (20 µM) ; yields the recorded call
Result :: label 0

Query :: // param item: C#CCN(C)CCCOc1ccc(Cl)cc1Cl [Clorgyline hydrochloride] (20 µM) ; yields the recorded call
Result :: label 0

Query :: // param item: CCOC(=O)[N-]c1c[n+](N2CCOCC2)no1 [Molsidomine] (20 µM) ; yields the recorded call
Result :: label 0

Query :: // param item: CN1CCC(OC(c2ccccc2)c2ccccc2)CC1 [Diphenylpyraline hydrochloride] (20 µM) ; yields the recorded call
Result :: label 0

Query :: // param item: CCOC(N)=O [Urethane] (20 µM) ; yields the recorded call
Result :: label 0

Query :: // param item: CC1(C)O[C@@H]2C[C@H]3[C@@H]4C[C@H](F)C5=CC(=O)C=C[C@]5(C)[C@H]4[C@@H](O)C[C@]3(C)[C@]2(C(=O)CO)O1 [Flunisolide] (20 µM) ; yields the recorded call
Result :: label 0

Query :: // param item: CNCCCC12CCC(c3ccccc31)c1ccccc12 [Maprotiline hydrochloride] (20 µM) ; yields the recorded call
Result :: label 0

Query :: // param item: C[C@]12CCC(=O)C=C1C=C[C@@H]1[C@@H]2CC[C@@]2(C)[C@H]1CC[C@@]21CCC(=O)O1 [Canrenone] (20 µM) ; yields the recorded call
Result :: label 0

Query :: // param item: CO[C@@]1(NC(=O)CSCC#N)C(=O)N2C(C(=O)O)=C(CSc3nnnn3C)CS[C@@H]21 [Cefmetazole sodium salt] (20 µM) ; yields the recorded call
Result :: label 1

Query :: // param item: Nc1ccc(S(=O)(=O)c2ccc(N)cc2)cc1 [Dapsone] (20 µM) ; yields the recorded call
Result :: label 0

Query :: // param item: C[C@H](CCC(=O)O)[C@H]1CC[C@H]2[C@@H]3[C@@H](O)C[C@@H]4C[C@H](O)CC[C@]4(C)[C@H]3CC[C@]12C [Urosiol] (20 µM) ; yields the recorded call
Result :: label 0
